FYI, the data here is from patent US11629139B2.

tested on: vesicular stomatitis virus particles (VSV) pseudotyped with EboV Zaire GP; test: microbe, parasite or virus in culture; type: cell-based; conditions: Vesicular stomatitis virus
pIC50: −log10 of the molar value.
Catalogue of compounds with associated pIC50

| COMPOUND | QUALIFIER_OPERATOR | pIC50 |
| --- | --- | --- |
| O=C(CC12CC3CC(CC(C3)C1)C2)NCC(=O)N1CCN(Cc2cc(F)cc(F)c2O)CC1 [Compound 1325] | = | 6.00 |
| O=C(CC1CCC(F)(F)CC1)NCC(=O)N1CCN(Cc2cc(F)cc3cccnc23)CC1 [Compound 1429] | = | 6.02 |
| O=C(CC1CCC(F)(F)CC1)NCC(=O)N1CCN(Cc2cc(Cl)cc(Cl)c2O)CC1 [Compound 1401] | = | 5.43 |
| O=C(CC1CCC(F)(F)CC1)NCC(=O)N1CCN(Cc2cc(Cl)cc(F)c2F)CC1 [Compound 1369] | < | 5.70 |

###

experiment: in vitro; conditions: mouse, plasma, m-plasma protein binding
Here the recorded fraction unbound is given for each entry.

| COMPOUND | fraction unbound |
| --- | --- |
| CS(=O)(=O)c1ccc(CNc2ccc(Cl)cc2CN2CCN(C(=O)CNC(=O)CC3CCC(F)(F)CC3)CC2)cc1 | 0.001 |
| CS(=O)(=O)c1ccc(COc2ccc(Cl)cc2CN2CCN(C(=O)CNC(=O)C3CC34CCC(F)(F)CC4)CC2)cc1 (stereo not drawn) | 0.013 |
| CS(=O)(=O)c1ccc(CNc2ccc(Cl)cc2CN2CCN(C(=O)CNC(=O)C3CC34CCC(F)(F)CC4)CC2)cc1 (stereo not drawn) | 0.001 |

###

test system: vesicular stomatitis virus particles (VSV) pseudotyped with EboV Zaire GP; assay: microbe, parasite or virus in culture; assay type: cell-based; details: Vesicular stomatitis virus
pIC50: −log10 of the molar value.
Class field: derived from pIC50; ranges LOW = under 6, MEDIUM = from 6 up to 7, HIGH = 7 and over

| MOLECULE | ANSWER_LABEL |
| --- | --- |
| COC(=O)c1ccc(COc2ccc(Cl)cc2CN2CCN(C(=O)CNC(=O)C(F)(F)C(F)F)CC2)cc1 [Compound 1358] | MEDIUM |
| N#Cc1ccc(COc2ccc(Cl)cc2CN2CCN(C(=O)CNC(=O)C3CC34CCC(F)(F)CC4)CC2)nc1 (centres unmarked) [Compound 1622] | HIGH |
| O=C(CC1CCC(F)(F)CC1)NCC(=O)N1CCN(Cc2cc(Cl)cc(OC3CC3)c2)CC1 [Compound 1365] | LOW |
| O=C(NCC(=O)N1CCN(Cc2cc(Cl)ccc2O)CC1)C1CC1c1ccc(F)cc1 (centres unmarked) [Compound 1425] | LOW |
| CC1(CC(=O)NCC(=O)N2CCN(Cc3cc(Cl)cc4cccnc34)CC2)CCOCC1 [Compound 1424] | LOW |
| COC(=O)c1ccc(COc2ccccc2CN2CCN(C(=O)CNC(=O)CC3CC(F)(F)C3)CC2)cc1 [Compound 1315] | MEDIUM |
| O=C(CC1CCC(F)(F)CC1)NCC(=O)N1CCN(Cc2cc(Cl)cc(Oc3ccncc3)c2)CC1 [Compound 1432] | MEDIUM |
| COC(=O)c1ccc(COc2ccc(C#N)cc2CN2CCN(C(=O)CNC(=O)CC34CC5CC(CC(C5)C3)C4)CC2)cc1 [Compound 1117] | HIGH |
| O=C(CC12CC3CC(CC(Cl)(C3)C1)C2)NCC(=O)N1CCN(Cc2ccccc2OCc2ccc(Br)cc2)CC1 [Compound 1243] | MEDIUM |
| Nc1ccc(Cl)cc1CN1CCN(C(=O)CNC(=O)C2C3CC(F)(F)CC32)CC1 (centres unmarked) [Compound 1386] | LOW |
| O=C(CC12CC3CC(CC(C3)C1)C2)NCC(=O)N1CCN(Cc2ccccc2OCc2ccc(-c3ncco3)cc2)CC1 [Compound 1803] | MEDIUM |
| Nc1ncc(Cl)cc1CN1CCN(C(=O)CNC(=O)CC23CC4CC(CC(C4)C2)C3)CC1 [Compound 1304] | LOW |
| CS(=O)(=O)c1ccc(COc2ccc(F)cc2CN2CCN(C(=O)CNC(=O)CC34CC5CC(CC(C5)C3)C4)CC2)cc1 [Compound 1443] | HIGH |
| O=C(CC1CCC(F)(F)CC1)NCC(=O)N1CCN(Cc2cc(Cl)ccc2F)CC1 [Compound 1367] | LOW |
| Nc1cc(Cl)cc(CN2CCN(C(=O)CNC(=O)CC3CCC(F)(F)CC3)CC2)c1 [Compound 1385] | LOW |
| O=C(NCC(=O)N1CCN(Cc2cc(Cl)cc3cn[nH]c23)CC1)C1CC12CCC(F)(F)CC2 (centres unmarked) [Compound 1421] | LOW |
| COC(=O)c1cccc(-c2ccc(O)c(CN3CCN(C(=O)CNC(=O)CC45CC6CC(CC(C6)C4)C5)CC3)c2)c1 [Compound 1310] | MEDIUM |
| COC(=O)c1ccc(COc2ccc(Cl)cc2CN2CCN(C(=O)CNC(=O)C3C4CC(F)(F)CC43)CC2)cc1 (centres unmarked) [Compound 1346] | MEDIUM |

###

assay: in vitro; settings: mouse, plasma, Mouse PPB (% bound)
READOUT_NAME: fraction unbound

| COMPOUND | VAL |
| --- | --- |
| O=C(CC12CC3CC(CC(C3)C1)C2)NCC(=O)N1CCN(Cc2ccccc2OCc2ccc(-c3ncco3)cc2)CC1 [Compound 1803] | 0.003 |

###

system: vesicular stomatitis virus particles (VSV) pseudotyped with EboV Zaire GP; assay: microbe, parasite or virus in culture; format: cell-based; conditions: read-out: IC50

| COMPOUND | SUBJECT_OF_TEST | UNIT_ABBREV | QUALIFIER_OPERATOR | IC50 |
| --- | --- | --- | --- | --- |
| COC(=O)c1ccc(Oc2cc(Cl)cc(CN3CCN(C(=O)CNC(=O)CC45CC6CC(CC(C6)C4)C5)CC3)c2)cc1 [Compound 1323] | vesicular stomatitis virus particles (VSV) pseudotyped with EboV Zaire GP | nM | = | 15 |
| O=C(CC12CC3CC(CC(C3)C1)C2)NCC(=O)N1CCN(Cc2cc(Cl)ccc2C(F)(F)F)CC1 [Compound 1308] | vesicular stomatitis virus particles (VSV) pseudotyped with EboV Zaire GP | nM | > | 2000 |
| CC(=O)Nc1ccc(Cl)cc1CN1CCN(C(=O)CNC(=O)CC23CC4CC(CC(C4)C2)C3)CC1 [Compound 1342] | vesicular stomatitis virus particles (VSV) pseudotyped with EboV Zaire GP | nM | = | 1100 |

###

system: vesicular stomatitis virus particles (VSV) pseudotyped with EboV Zaire GP; test: microbe, parasite or virus in culture; type: cell-based; conditions: Vesicular stomatitis virus, read-out: IC50, VSV EBOV infection
pIC50: −log10 of the molar value.

| COMPOUND | SUBJECT_OF_TEST | pIC50 |
| --- | --- | --- |
| CC(C)c1nc(CN(C)C(=O)N[C@H](C(=O)N[C@@H](Cc2ccccc2)C[C@H](O)[C@H](Cc2ccccc2)NC(=O)OCc2cncs2)C(C)C)cs1 [Ritonavir, reference compound] | vesicular stomatitis virus particles (VSV) pseudotyped with EboV Zaire GP | < 4.60 |

###

conditions: mouse, in vivo
// reported Cl_obs for each item listed
READOUT_NAME: Cl_obs (mL/min/kg)

| COMPOUND | READOUT_NAME | VAL |
| --- | --- | --- |
| [2H]C([2H])(c1cc(Cl)ccc1N)N1CCN(C(=O)CNC(=O)CC2CCC(F)(F)CC2)CC1 | Cl_obs | 12.3 |
| [2H]C([2H])(c1cc(Cl)ccc1NCc1ccc(S(C)(=O)=O)cc1)N1CCN(C(=O)CNC(=O)C2CC23CCC(F)(F)CC3)CC1 (single isomer, unassigned; (-)) [(−)-1503] | Cl_obs | 12.5 |
| [2H]C([2H])(c1cc(Cl)ccc1N)N1CCN(C(=O)CNC(=O)C2CC23CCC(F)(F)CC3)CC1 (single isomer, unassigned; (-)) [(−)-1413] | Cl_obs | 15.5 |
| CS(=O)(=O)c1ccc(COc2ccc(Cl)cc2CN2CCN(C(=O)CNC(=O)C3CC34CCC(F)(F)CC4)CC2)cc1 (single isomer, unassigned; (-)) [(−)-1476] | Cl_obs | 11.9 |

###

assay: in vitro; conditions: mouse, microsomes, pH 7.4, MLM T½ (min)

| CHEMICAL_STRING | half-life / min |
| --- | --- |
| O=C(CC12CC3CC(CC(C3)C1)C2)NCC(=O)N1CCN(Cc2ccccc2OCc2ccc(-c3ncco3)cc2)CC1 | 1 |
| Nc1ccc(Cl)cc1CN1CCN(C(=O)CNC(=O)CC2CCC(F)(F)CC2)CC1 | 9 |
| O=C(CC12CC3(F)CC(F)(CC(F)(C3)C1)C2)NCC(=O)N1CCN(Cc2ccccc2OCc2ccc(Br)cc2)CC1 | 1 |
